# measurementTarget: human Factor Xa (Homo sapiens, UniProt P00742)
# Construct: This complex converts factor X to Xa
# Sequence (P00742 235-488 limits assumed): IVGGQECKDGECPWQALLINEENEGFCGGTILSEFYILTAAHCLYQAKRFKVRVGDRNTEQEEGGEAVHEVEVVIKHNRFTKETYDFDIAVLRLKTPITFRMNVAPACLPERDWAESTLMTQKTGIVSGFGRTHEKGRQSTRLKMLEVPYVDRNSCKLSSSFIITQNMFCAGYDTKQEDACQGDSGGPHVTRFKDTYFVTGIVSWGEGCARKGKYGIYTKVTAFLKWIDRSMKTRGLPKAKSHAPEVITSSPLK
# Sequence (P00742 41-179 limits assumed): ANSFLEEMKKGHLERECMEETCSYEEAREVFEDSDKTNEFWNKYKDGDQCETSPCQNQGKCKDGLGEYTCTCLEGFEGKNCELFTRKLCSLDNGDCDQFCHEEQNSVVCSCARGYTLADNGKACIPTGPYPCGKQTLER
# assayOverview: Factor Xa assay (chromogenic, Ki)
# conditionSet: 3.3 nM Xa, S-2222 0.5 mM; read-out: binding affinity to serine proteases: Xa
pKi: −log10 of the molar value.
Kind request: treat 4 as inclusive, so pKi at 4 or higher is y, anything lower is n.

{"compound": "CCCNC(=O)[C@@H]1C[C@@H](Oc2cccc(C(=N)N)c2)CN1 [compound 49]", "measurementTarget": "human Factor Xa (Homo sapiens, UniProt P00742)", "groupLabel": "y"}
{"compound": "N=C(N)c1cccc(O[C@H]2CN[C@H](C(=O)NCc3ccccn3)C2)c1 [compound 47]", "measurementTarget": "human Factor Xa (Homo sapiens, UniProt P00742)", "groupLabel": "y"}
{"compound": "N=C(N)c1cccc(O[C@H]2CN[C@H](C(=O)Nc3cccc(C(F)(F)F)c3)C2)c1 [compound 45]", "measurementTarget": "human Factor Xa (Homo sapiens, UniProt P00742)", "groupLabel": "y"}
{"compound": "N=C(N)c1cccc(O[C@H]2CN[C@H](C(=O)N3CCCC(C(N)=O)C3)C2)c1 (stereo partly shown) [compound 61]", "measurementTarget": "human Factor Xa (Homo sapiens, UniProt P00742)", "groupLabel": "y"}
{"compound": "C[C@H](NC(=O)[C@@H]1C[C@@H](Oc2cccc(C(=N)N)c2)CN1)c1ccccc1 [compound 46]", "measurementTarget": "human Factor Xa (Homo sapiens, UniProt P00742)", "groupLabel": "y"}
{"compound": "N=C(N)c1cccc(O[C@@H]2C[C@@H](C(=O)N3CCc4ccccc4C3)N(S(=O)(=O)c3ccccc3)C2)c1 [compound 21]", "measurementTarget": "human Factor Xa (Homo sapiens, UniProt P00742)", "groupLabel": "y"}
{"compound": "Cc1ccccc1NC(=O)[C@@H]1C[C@@H](Oc2cccc(C(=N)N)c2)CN1 [compound 44]", "measurementTarget": "human Factor Xa (Homo sapiens, UniProt P00742)", "groupLabel": "y"}
{"compound": "CC(C)CCNC(=O)[C@@H]1C[C@@H](Oc2cccc(C(=N)N)c2)CN1 [compound 54]", "measurementTarget": "human Factor Xa (Homo sapiens, UniProt P00742)", "groupLabel": "y"}
{"compound": "N=C(N)c1cccc(O[C@@H]2C[C@@H](C(=O)O)N(S(=O)(=O)c3ccccc3)C2)c1 [compound 82]", "measurementTarget": "human Factor Xa (Homo sapiens, UniProt P00742)", "groupLabel": "n"}
{"compound": "N=C(N)c1cccc(O[C@H]2CN[C@H](C(=O)NCc3ccccc3)C2)c1 [compound 37]", "measurementTarget": "human Factor Xa (Homo sapiens, UniProt P00742)", "groupLabel": "y"}
{"compound": "N=C(N)c1cccc(O[C@H]2CN[C@H](C(=O)N3CCC(O)CC3)C2)c1 [compound 57]", "measurementTarget": "human Factor Xa (Homo sapiens, UniProt P00742)", "groupLabel": "y"}
{"compound": "C[C@H](NC(=O)[C@@H]1C[C@@H](Oc2cccc(C(=N)N)c2)CN1)C(=O)O [compound 75]", "measurementTarget": "human Factor Xa (Homo sapiens, UniProt P00742)", "groupLabel": "n"}
{"compound": "COc1ccc(NC(=O)[C@@H]2C[C@@H](Oc3cccc(C(=N)N)c3)CN2)cc1 [compound 64]", "measurementTarget": "human Factor Xa (Homo sapiens, UniProt P00742)", "groupLabel": "y"}
{"compound": "CC(C)[C@@H](NC(=O)[C@@H]1C[C@@H](Oc2cccc(C(=N)N)c2)CN1)C(=O)O [compound 72]", "measurementTarget": "human Factor Xa (Homo sapiens, UniProt P00742)", "groupLabel": "n"}
{"compound": "N=C(N)c1ccc(NC(=O)[C@@H]2C[C@@H](Oc3cccc(C(=N)N)c3)CN2Cc2ccc([N+](=O)[O-])cc2)cc1 [compound 22]", "measurementTarget": "human Factor Xa (Homo sapiens, UniProt P00742)", "groupLabel": "y"}
{"compound": "N=C(N)c1cccc(O[C@H]2CN[C@H](C(=O)N3CCNCC3)C2)c1 [compound 63]", "measurementTarget": "human Factor Xa (Homo sapiens, UniProt P00742)", "groupLabel": "y"}

###

# measurementTarget: human Thrombin (Homo sapiens, UniProt P00734)
# Construct: rapidly converts prothrombin to thrombin
# assayOverview: Thrombin assay (chromogenic, Ki)
# Format: biochemical
# conditionSet: 8.2 nM thrombin, S-2266 0.3 mM; read-out: binding affinity to serine proteases: thrombin
pKi: −log10 of the molar value.

{"compound": "N=C(N)c1ccc(NC(=O)[C@@H]2C[C@@H](Oc3cccc(C(=N)N)c3)CN2Cc2ccccc2[N+](=O)[O-])cc1 [compound 7]", "readoutRelation": "=", "pKi": 4.60}
{"compound": "COC(=O)[C@@H]1C[C@@H](Oc2cccc(C(=N)N)c2)CN1", "readoutRelation": "<", "pKi": 4.44}
{"compound": "N=C(N)c1ccc(NC(=O)[C@@H]2C[C@@H](Oc3cccc(C(=N)N)c3)CN2Cc2ccc([N+](=O)[O-])cc2)cc1", "readoutRelation": "<", "pKi": 4.44}
{"compound": "CN(Cc1ccccc1)C(=O)[C@@H]1C[C@@H](Oc2cccc(C(=N)N)c2)CN1Cc1ccccc1", "readoutRelation": "=", "pKi": 4.96}
{"compound": "C=CCOC(=O)[C@@H]1C[C@@H](Oc2cccc(C(=N)N)c2)CN1C(=O)c1ccccc1", "readoutRelation": "=", "pKi": 4.66}
{"compound": "C=CCOC(=O)[C@@H]1C[C@@H](Oc2cccc(C(=N)N)c2)CN1C(C)=O", "readoutRelation": "<", "pKi": 4.44}
{"compound": "CCCN1C[C@H](Oc2cccc(C(=N)N)c2)C[C@H]1C(=O)Nc1ccc(C(=N)N)cc1", "readoutRelation": "=", "pKi": 5.32}
{"compound": "COc1cc2c(cc1OC)CN(C(=O)[C@@H]1C[C@@H](Oc3cccc(C(=N)N)c3)CN1)CC2", "readoutRelation": "=", "pKi": 6.06}
{"compound": "N=C(N)c1ccc(NC(=O)[C@@H]2C[C@@H](Oc3cccc(C(=N)N)c3)CN2Cc2ccccc2[N+](=O)[O-])cc1 [compound 5]", "readoutRelation": "=", "pKi": 4.84}
{"compound": "CS(=O)(=O)N1C[C@H](Oc2cccc(C(=N)N)c2)C[C@H]1C(=O)Nc1ccc(Cl)cc1", "readoutRelation": "<", "pKi": 4.44}
{"compound": "N=C(N)c1cccc(O[C@H]2CN[C@H](C(=O)Nc3ccccc3)C2)c1", "readoutRelation": "<", "pKi": 4.44}
{"compound": "N=C(N)c1cccc(O[C@@H]2C[C@@H](C(=O)N3CCc4ccccc4C3)N(S(=O)(=O)c3ccccc3)C2)c1", "readoutRelation": "=", "pKi": 4.84}
{"compound": "CC(=O)N1C[C@H](Oc2cccc(C(=N)N)c2)C[C@H]1C(=O)Nc1ccc(C(=N)N)cc1", "readoutRelation": "<", "pKi": 4.44}
{"compound": "CCCCCCN1C[C@H](Oc2cccc(C(=N)N)c2)C[C@H]1C(=O)Nc1ccc(C(=N)N)cc1", "readoutRelation": "=", "pKi": 4.54}

###

trypsin (Bos taurus, UniProt P00760) log10 of Ki data
Sequence (P00760 24-246): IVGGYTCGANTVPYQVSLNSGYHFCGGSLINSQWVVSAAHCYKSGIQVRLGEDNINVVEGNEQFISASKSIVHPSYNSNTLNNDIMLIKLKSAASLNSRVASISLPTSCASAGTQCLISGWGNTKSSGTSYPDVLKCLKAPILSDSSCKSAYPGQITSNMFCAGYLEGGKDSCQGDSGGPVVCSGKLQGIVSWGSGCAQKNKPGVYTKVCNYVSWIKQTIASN
valueKind: log10 of Ki (log10 of the value in µM)

{"lineNotation": "N=C(N)c1ccc(NC(=O)[C@@H]2C[C@@H](Oc3cccc(C(=N)N)c3)CN2Cc2ccc([N+](=O)[O-])cc2)cc1", "log10 of Ki": 0.89}
{"lineNotation": "C=CCOC(=O)[C@@H]1C[C@@H](Oc2cccc(C(=N)N)c2)CN1Cc1ccccc1", "log10 of Ki": 0.70}
{"lineNotation": "COc1cc2c(cc1OC)CN(C(=O)[C@@H]1C[C@@H](Oc3cccc(C(=N)N)c3)CN1)CC2", "log10 of Ki": -0.22}
{"lineNotation": "CS(=O)(=O)N1C[C@H](Oc2cccc(C(=N)N)c2)C[C@H]1C(=O)Nc1ccc(Cl)cc1", "log10 of Ki": 1.61}
{"lineNotation": "N=C(N)c1cccc(O[C@@H]2C[C@@H](C(=O)N3CCc4ccccc4C3)N(S(=O)(=O)c3ccccc3)C2)c1", "log10 of Ki": 1.31}
{"lineNotation": "CN(Cc1ccccc1)C(=O)[C@@H]1C[C@@H](Oc2cccc(C(=N)N)c2)CN1Cc1ccccc1", "log10 of Ki": 0.35}
{"lineNotation": "C=CCOC(=O)[C@@H]1C[C@@H](Oc2cccc(C(=N)N)c2)CN1C(C)=O", "log10 of Ki": 1.48}

###

# measurementTarget: human Factor Xa (Homo sapiens, UniProt P00742)
# Construct: This complex converts factor X to Xa
# assayOverview: Factor Xa assay (chromogenic, Ki)
# Assay type: biochemical
# conditionSet: 3.3 nM Xa, S-2222 0.5 mM; read-out: binding affinity to serine proteases: Xa
pKi: −log10 of the molar value.
The entries below are paired with their reported pKi.

{"lineNotation": "N=C(N)c1cccc(O[C@H]2CN[C@H](C(=O)NCc3ccc4ccccc4c3)C2)c1", "pKi": 5.04}
{"lineNotation": "COc1ccc(CNC(=O)[C@@H]2C[C@@H](Oc3cccc(C(=N)N)c3)CN2)cc1", "pKi": 5.48}
{"lineNotation": "N=C(N)c1cccc(O[C@H]2CN[C@H](C(=O)Nc3ccc4ccccc4c3)C2)c1", "pKi": 4.85}
{"lineNotation": "N=C(N)c1cccc(O[C@H]2CN[C@H](C(=O)NCc3cccc(Cl)c3)C2)c1", "pKi": 5.05}
{"lineNotation": "N=C(N)c1cccc(O[C@@H]2C[C@@H](C(=O)O)N(Cc3ccccc3)C2)c1", "pKi": 3.98}
{"lineNotation": "CCCCCCN1C[C@H](Oc2cccc(C(=N)N)c2)C[C@H]1C(=O)Nc1ccc(C(=N)N)cc1", "pKi": 5.17}
{"lineNotation": "Cc1ccccc1CNC(=O)[C@@H]1C[C@@H](Oc2cccc(C(=N)N)c2)CN1", "pKi": 4.64}
{"lineNotation": "CCCN1C[C@H](Oc2cccc(C(=N)N)c2)C[C@H]1C(=O)Nc1ccc(C(=N)N)cc1", "pKi": 6.53}
{"lineNotation": "COc1ccc(CNC(=O)[C@@H]2C[C@@H](Oc3cccc(C(=N)N)c3)CN2S(=O)(=O)c2ccccc2)cc1", "pKi": 4.47}
{"lineNotation": "COc1ccc(CNC(=O)[C@@H]2C[C@@H](Oc3cccc(C(=N)N)c3)CN2C(C)=O)cc1", "pKi": 4.92}
{"lineNotation": "N=C(N)c1cccc(O[C@@H]2C[C@@H](C(=O)Nc3ccc(Cl)cc3)N(C(=O)c3ccccc3)C2)c1", "pKi": 5.10}
{"lineNotation": "N=C(N)c1cccc(O[C@H]2CN[C@H](C(=O)Nc3ccc(F)cc3)C2)c1", "pKi": 4.15}
{"lineNotation": "N=C(N)c1ccc(NC(=O)[C@@H]2C[C@@H](Oc3cccc(C(=N)N)c3)CN2)cc1", "pKi": 5.94}
{"lineNotation": "COc1ccc(CNC(=O)[C@@H]2C[C@@H](Oc3cccc(C(=N)N)c3)CN2C(=O)c2ccccc2)cc1", "pKi": 4.33}
{"lineNotation": "N=C(N)c1cccc(O[C@H]2CN[C@H](C(=O)Nc3ccc(C(F)(F)F)cc3)C2)c1", "pKi": 4.89}
{"lineNotation": "Cc1ccc(CNC(=O)[C@@H]2C[C@@H](Oc3cccc(C(=N)N)c3)CN2)cc1", "pKi": 5.29}
